- Target Desc: MAPRE1 in the presence of FKBP12 (Homo sapiens, UniProt P62942+Q15691)
- Construct: His-tag (N)
- Sequence (Q15691 whole entry, one chain of several): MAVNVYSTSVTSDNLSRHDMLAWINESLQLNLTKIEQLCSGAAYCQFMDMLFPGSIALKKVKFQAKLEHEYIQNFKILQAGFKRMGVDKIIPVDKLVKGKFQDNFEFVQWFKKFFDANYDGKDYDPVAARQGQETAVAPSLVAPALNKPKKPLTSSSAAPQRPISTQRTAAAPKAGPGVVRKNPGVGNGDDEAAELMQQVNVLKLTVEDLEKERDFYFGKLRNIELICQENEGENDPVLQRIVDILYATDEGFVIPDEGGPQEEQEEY
- Test Summary: Spectral shift target engagement assay, binding to MAPRE1 in the presence of 10 μM FKBP12 (ternary)
- Measurement Context: ternary Kd, model-based ([CL] at [Ltot] = EC50); read-out: KT,2
- Source text: Our method of choice is the spectral shift method, which monitors binding events on the target isothermally and in equilibrium via an environment-sensitive near-infrared fluorophore. […] Those changes affect the physiochemical properties of the reporter fluorophore and translate into either blue or red shifts (or peak broadening) of emission peaks upon ligand binding, which can be sensitively monitored by simultaneously recording the fluorescence at two wavelengths (i.e., at 650 nm and 670 nm). […]
pKd: −log10 of the molar value.
Assay Endpoint: pKd

Compound | Observed
C=C1CCN2C(=O)COc3cccc(c3)C(CCc3ccc(OC)c(OC)c3)OC(=O)C3CCCCN3C(=O)C(=O)C(C)(C)COC(=O)C(CN)NC(=O)C2C1 (stereo not drawn) | 5.71
C=C1CCN2C(=O)COc3cccc(c3)C(CCc3ccc(OC)c(OC)c3)OC(=O)C3CCCCN3C(=O)C(=O)C(C)(C)COC(=O)C(C)NC(=O)C2C1 (stereo not drawn) | 5.99
C=C1CCN2C(=O)COc3cccc(c3)C(CCc3ccc(OC)c(OC)c3)OC(=O)C3CCCCN3C(=O)C(=O)C(C)(C)COC(=O)C3(CC3)NC(=O)C2C1 (stereo not drawn) | 6.76
C=C1CCN2C(=O)COc3cccc(c3)C(CCc3ccc(OC)c(OC)c3)OC(=O)C3CCCCN3C(=O)C(=O)C(C)(C)COC(=O)C(C)(C)NC(=O)C2C1 (stereo not drawn) | 6.43
C=C1CCN2C(=O)COc3cccc(c3)C(CCc3ccc(OC)c(OC)c3)OC(=O)C3CCCCN3C(=O)C(=O)C(C)(C)COC(=O)C(C(F)(F)F)NC(=O)C2C1 (stereo not drawn) | 5.97
C=C1CCN2C(=O)COc3cccc(c3)C(CCc3ccc(OC)c(OC)c3)OC(=O)C3CCCCN3C(=O)C(=O)C(C)(C)COC(=O)C(CC)NC(=O)C2C1 (stereo not drawn) | 6.09

---

- Target Desc: MAPRE1 in the presence of FKBP12 (Homo sapiens, UniProt P62942+Q15691)
- Construct: His-tag (N)
- Test Summary: Spectral shift target engagement assay, binding to MAPRE1 in the presence of 10 μM FKBP12 (ternary)
- Measurement Context: [Ctot] = 10 μM FKBP12
- Description: Our method of choice is the spectral shift method, which monitors binding events on the target isothermally and in equilibrium via an environment-sensitive near-infrared fluorophore. […] Those changes affect the physiochemical properties of the reporter fluorophore and translate into either blue or red shifts (or peak broadening) of emission peaks upon ligand binding, which can be sensitively monitored by simultaneously recording the fluorescence at two wavelengths (i.e., at 650 nm and 670 nm). […]
Ratio [Ctot]/KC,1 overview

Molecule | Ratio [Ctot]/KC,1
C=C1CCN2C(=O)COc3cccc(c3)C(CCc3ccc(OC)c(OC)c3)OC(=O)C3CCCCN3C(=O)C(=O)C(C)(C)COC(=O)C(C(F)(F)F)NC(=O)C2C1 (centres unmarked) [R,S-SLF-8] | 92
C=C1CCN2C(=O)COc3cccc(c3)C(CCc3ccc(OC)c(OC)c3)OC(=O)C3CCCCN3C(=O)C(=O)C(C)(C)COC(=O)C(C)NC(=O)C2C1 (centres unmarked) [R,S-SLF-1a] | 476
C=C1CCN2C(=O)COc3cccc(c3)C(CCc3ccc(OC)c(OC)c3)OC(=O)C3CCCCN3C(=O)C(=O)C(C)(C)COC(=O)C(C)(C)NC(=O)C2C1 (centres unmarked) [R,--SLF-10] | 93
C=C1CCN2C(=O)COc3cccc(c3)C(CCc3ccc(OC)c(OC)c3)OC(=O)C3CCCCN3C(=O)C(=O)C(C)(C)COC(=O)C(CO)NC(=O)C2C1 (centres unmarked) [R,S-SLF-6] | 222
C=C1CCN2C(=O)COc3cccc(c3)C(CCc3ccc(OC)c(OC)c3)OC(=O)C3CCCCN3C(=O)C(=O)C(C)(C)COC(=O)C3(CC3)NC(=O)C2C1 (centres unmarked) [R,--SLF-11] | 41
C=C1CCN2C(=O)COc3cccc(c3)C(CCc3ccc(OC)c(OC)c3)OC(=O)C3CCCCN3C(=O)C(=O)C(C)(C)COC(=O)C(CC)NC(=O)C2C1 (centres unmarked) [R,S-SLF-3] | 152
C=C1CCN2C(=O)COc3cccc(c3)C(CCc3ccc(OC)c(OC)c3)OC(=O)C3CCCCN3C(=O)C(=O)C(C)(C)COC(=O)C(CN)NC(=O)C2C1 (centres unmarked) [R,S-SLF-7] | 60
COc1ccc(CCC2OC(=O)C3CCCCN3C(=O)C(=O)C(C)(C)COC(=O)C(C)NC(=O)C3CC(O)CN3C(=O)COc3cccc2c3)cc1OC (centres unmarked) [R,S-SLF-12] | 769

---

- Target Desc: MAPRE1 in the presence of FKBP12 (Homo sapiens, UniProt P62942+Q15691)
- Construct: His-tag (N)
- Test Summary: Spectral shift target engagement assay, binding to MAPRE1 in the presence of 10 μM FKBP12 (ternary)
- Measurement Context: 5 nM MAPRE1-NHS, 10 μM FKBP12; read-out: EC50 of the %Tbound, ternary curve
pEC50: −log10 of the molar value.

Molecule | Target Desc | pEC50
C=C1CCN2C(=O)COc3cccc(c3)C(CCc3ccc(OC)c(OC)c3)OC(=O)C3CCCCN3C(=O)C(=O)C(C)(C)COC(=O)C(C)NC(=O)C2C1 (stereo not drawn) [R,S-SLF-1a] | MAPRE1 in the presence of FKBP12 (Homo sapiens, UniProt P62942+Q15691) | 5.99
C=C1CCN2C(=O)COc3cccc(c3)C(CCc3ccc(OC)c(OC)c3)OC(=O)C3CCCCN3C(=O)C(=O)C(C)(C)COC(=O)C(CC)NC(=O)C2C1 (stereo not drawn) | MAPRE1 in the presence of FKBP12 (Homo sapiens, UniProt P62942+Q15691) | 6.08
C=C1CCN2C(=O)COc3cccc(c3)C(CCc3ccc(OC)c(OC)c3)OC(=O)C3CCCCN3C(=O)C(=O)C(C)(C)COC(=O)C(CN)NC(=O)C2C1 (stereo not drawn) | MAPRE1 in the presence of FKBP12 (Homo sapiens, UniProt P62942+Q15691) | 5.70

---

// reported EC50 for each item listed
- Target Desc: FKBP12 (Homo sapiens)
- Sequence (P62942 whole entry, species assumed): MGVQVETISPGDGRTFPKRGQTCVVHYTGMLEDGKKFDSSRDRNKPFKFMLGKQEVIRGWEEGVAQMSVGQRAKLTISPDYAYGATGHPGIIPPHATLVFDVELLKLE
- Test Summary: Spectral shift target engagement assay, binary binding to FKBP12
- Measurement Context: 40 nM FKBP12-NTA, no MAPRE1; read-out: EC50 of the %Cbound, binary curve

Compound | Target Desc | Unit Info | EC50
C=C1CCN2C(=O)COc3cccc(c3)C(CCc3ccc(OC)c(OC)c3)OC(=O)C3CCCCN3C(=O)C(=O)C(C)(C)COC(=O)C(CC)NC(=O)C2C1 (centres unmarked) [R,S-SLF-3] | FKBP12 (Homo sapiens) | nM | 86
C=C1CCN2C(=O)COc3cccc(c3)C(CCc3ccc(OC)c(OC)c3)OC(=O)C3CCCCN3C(=O)C(=O)C(C)(C)COC(=O)C(C)(C)NC(=O)C2C1 (centres unmarked) [R,--SLF-10] | FKBP12 (Homo sapiens) | nM | 128
C=C1CCN2C(=O)COc3cccc(c3)C(CCc3ccc(OC)c(OC)c3)OC(=O)C3CCCCN3C(=O)C(=O)C(C)(C)COC(=O)C(C(F)(F)F)NC(=O)C2C1 (centres unmarked) [R,S-SLF-8] | FKBP12 (Homo sapiens) | nM | 129
C=C1CCN2C(=O)COc3cccc(c3)C(CCc3ccc(OC)c(OC)c3)OC(=O)C3CCCCN3C(=O)C(=O)C(C)(C)COC(=O)C(C)NC(=O)C2C1 (centres unmarked) [R,S-SLF-1a] | FKBP12 (Homo sapiens) | nM | 41
C=C1CCN2C(=O)COc3cccc(c3)C(CCc3ccc(OC)c(OC)c3)OC(=O)C3CCCCN3C(=O)C(=O)C(C)(C)COC(=O)C(CO)NC(=O)C2C1 (centres unmarked) [R,S-SLF-6] | FKBP12 (Homo sapiens) | nM | 65
C=C1CCN2C(=O)COc3cccc(c3)C(CCc3ccc(OC)c(OC)c3)OC(=O)C3CCCCN3C(=O)C(=O)C(C)(C)COC(=O)C(C)NC(=O)C2C1 (centres unmarked) [S,S-SLF-1d] | FKBP12 (Homo sapiens) | nM | 27
C=C1CCN2C(=O)COc3cccc(c3)C(CCc3ccc(OC)c(OC)c3)OC(=O)C3CCCCN3C(=O)C(=O)C(C)(C)COC(=O)C3(CC3)NC(=O)C2C1 (centres unmarked) [R,--SLF-11] | FKBP12 (Homo sapiens) | nM | 254
C=C1CCN2C(=O)COc3cccc(c3)C(CCc3ccc(OC)c(OC)c3)OC(=O)C3CCCCN3C(=O)C(=O)C(C)(C)COC(=O)C(CN)NC(=O)C2C1 (centres unmarked) [R,S-SLF-7] | FKBP12 (Homo sapiens) | nM | 186

Taken from paper PMC11989212.
